Listing of entries alongside the reported % Inhibition at 30 µM.
Target: 3CL Protease, MBP-tagged (SARS-CoV-2) (Severe acute respiratory syndrome coronavirus 2)
Construct: The assay was performed using 3CL Protease, MBP-tagged (SARS-CoV-2) Assay kit; MBP; purchased BPS Biosciences 79955-2
Test: biochemical
Conditions: COVID-19 3CL Protease inhibitory activity at 30 µM compound; 30 µM

{"molecule": "CCC(CC)OC(=O)C(C)NP(=O)(OCC(=O)N1CCN(Cc2ccccc2)C2(CCNC2=O)C1)Oc1ccccc1 (centres unmarked) [ET-116]", "% Inhibition at 30 µM / %": 28}
{"molecule": "CCC(CC)OC(=O)[C@H](C)NP(=O)(OCC(=O)N1CCN(Cc2ccccc2)C2(CCNC2=O)C1)Oc1ccccc1 (some centres unmarked)", "% Inhibition at 30 µM / %": 30}
{"molecule": "CCC(CC)OC(=O)C(C)NP(=O)(OCC(=O)N1CCN(Cc2ccccc2)C2(CCNC2=O)C1)Oc1ccccc1 (centres unmarked) [ET-117]", "% Inhibition at 30 µM / %": 15}
{"molecule": "CCC(CC)OC(=O)C(C)NP(=O)(OCC(=O)N1CCN(Cc2ccccc2)C2(CCNC2=O)C1)Oc1ccccc1 (centres unmarked) [ET-118]", "% Inhibition at 30 µM / %": 34}
{"molecule": "CCC(CC)OC(=O)C(C)NP(=O)(OCC(=O)N1CCN(Cc2ccccc2)C2(CCNC2=O)C1)Oc1ccccc1 (centres unmarked) [ET-115]", "% Inhibition at 30 µM / %": 31}

* * *

Target: 3CL Protease, MBP-tagged (SARS-CoV-2) (Severe acute respiratory syndrome coronavirus 2)
Construct: The assay was performed using 3CL Protease, MBP-tagged (SARS-CoV-2) Assay kit; MBP; purchased BPS Biosciences 79955-2
Test: biochemical
Conditions: read-out: % Inhibition at 30 µM, COVID-19 3CL Protease inhibitory activity at 30 µM compound
The entries below come with measured inhibition at 30 µM values attached.
measuredMetric: inhibition at 30 µM (%)

{"compound": "CCC(CC)OC(=O)[C@H](C)NP(=O)(OCC(=O)N1CCN(Cc2ccccc2)C2(CCNC2=O)C1)Oc1ccccc1 (some centres unmarked)", "measureUnit": "%", "number": 34}
{"compound": "O=C(CI)N1CCN(Cc2ccccc2)C2(CCNC2=O)C1 (centres unmarked)", "measureUnit": "%", "number": 36}
{"compound": "CC(=O)N1CCN(Cc2ccccc2)[C@@]2(CCNC2=O)C1", "measureUnit": "%", "number": 0}
{"compound": "CC(Cl)C(=O)N1CCN(Cc2ccccc2)C2(CCNC2=O)C1 (centres unmarked)", "measureUnit": "%", "number": 0}
{"compound": "CC(=O)N1CCN(Cc2ccccc2)[C@]2(CCNC2=O)C1", "measureUnit": "%", "number": 0}
